system: Yap1 mRNA; experiment: Antisense inhibition of human Yap1 in A-431 cells by cEt gapmers, single dose (Example 3, RTS36584); format: cell-based; conditions: Table 13; A-431 cells, 5,000 cells per well, free uptake, 2,000 nM modified oligonucleotide, approx. 48 hours; RTS36584; normalized to RIBOGREEN; Yap1 mRNA relative to untreated control cells
Strand notation (5' to 3'): a small letter for the sugar, then the base; units joined by * are phosphorothioate-linked, units joined directly phosphodiester-linked; [ ] holds rarer units or linkages, { } end groups; capitals alone tell only the bases. k = constrained ethyl (cEt); [5mC] = 5-methylcytosine; d = 2'-deoxy (DNA)
Lab note: anything with YAP1 (% UTC) at or over 10 % UTC counts as Met; the rest go in Not met.

In: Quick check, YAP1 (% UTC) >= 10 % UTC? 958695 (antisense kT*k[5mC]*kA*dA*dT*dT*d[5mC]*dT*d[5mC]*d[5mC]*dA*d[5mC]*d[5mC]*kA*kG*kA) [Compound 958695]
Out: Met

In: // same read-out, input: 958530 (kG*kA*kG*d[5mC]*dA*dA*dG*dT*d[5mC]*dT*dT*dG*dT*kA*kA*kG; antisense) [Compound 958530]
Out: Met

In: Entry to check: 958655 (kG*k[5mC]*kA*dA*dT*d[5mC]*dT*dG*dT*dG*dA*dT*d[5mC]*k[5mC]*k[5mC]*kA; antisense) [Compound 958655]
Out: Met

In: Repeat with 958445 (antisense kG*kG*k[5mC]*dT*dA*d[5mC]*dG*d[5mC]*d[5mC]*d[5mC]*dG*dG*dA*k[5mC]*kG*k[5mC]) [Compound 958445]
Out: Met

In: Same question, 958585 (k[5mC]*kT*k[5mC]*dT*dA*dT*d[5mC]*dA*dA*dG*dG*dT*d[5mC]*k[5mC]*k[5mC]*k[5mC]; antisense) [Compound 958585] this time
Out: Not met

In: // repeat for 958795 (antisense kT*kA*kT*dT*d[5mC]*d[5mC]*dG*d[5mC]*dA*dT*dT*dG*d[5mC]*k[5mC]*kT*kA) [Compound 958795] and report
Out: Not met

====

I'd appreciate it if you could supply YAP1 (% UTC) values for the items below.
tested on: Yap1 mRNA; assay: Antisense inhibition of human Yap1 in A-431 cells by cEt gapmers, single dose (Example 2, RTS4814); assay type: cell-based; conditions: Table 24; Yap1 mRNA as percent of untreated control; 3-10-3 cEt gapmers targeting SEQ ID NO.: 1, and 2
Strand notation (5' to 3'): a small letter for the sugar, then the base; units joined by * are phosphorothioate-linked, units joined directly phosphodiester-linked; [ ] holds rarer units or linkages, { } end groups; capitals alone tell only the bases. k = constrained ethyl (cEt); [5mC] = 5-methylcytosine; d = 2'-deoxy (DNA)
Give the number; % UTC is assumed, so skip it.

In: So what's the measured YAP1 (% UTC) for this one? 1075722 (kG*kT*kT*dA*dA*dA*dT*dA*d[5mC]*d[5mC]*dT*dT*d[5mC]*kT*kA*kG; antisense) [Compound 1075722]
Out: 88

In: Now this one: 1075338 (k[5mC]*k[5mC]*k[5mC]*dA*dA*dA*dA*dA*d[5mC]*dT*dA*dG*d[5mC]*kT*kT*kA; antisense) [Compound 1075338]
Out: 56

In: Similarly, 1076298 (kG*kT*kT*dA*dT*dA*dA*dA*dG*dA*d[5mC]*d[5mC]*d[5mC]*kA*kA*kT; antisense) [Compound 1076298] ?
Out: 10

In: Try 1076554 (antisense kT*kG*kG*dG*dA*dA*dT*dA*dG*dT*dG*dA*dA*kT*kT*kT) [Compound 1076554] next.
Out: 30

In: Follow-up item: 1074314 (antisense kA*kT*kT*dG*dA*dT*dA*dT*dT*d[5mC]*d[5mC]*dG*d[5mC]*kA*kT*kT) [Compound 1074314]
Out: 12

In: Next entry: 1074346 (antisense kA*kT*k[5mC]*dT*dG*dA*dG*d[5mC]*dT*dA*dT*dT*dG*kG*kT*k[5mC]) [Compound 1074346]
Out: 10

In: Do the same for 1076426 (kA*k[5mC]*kG*dG*dG*dA*dA*dA*dA*dT*dT*d[5mC]*dT*kG*kG*kA; antisense) [Compound 1076426] please
Out: 9

In: Same question for 1076138 (kA*kG*k[5mC]*d[5mC]*dA*dA*d[5mC]*dA*dA*dT*dT*dT*dT*kT*kG*kG; antisense) [Compound 1076138] please.
Out: 113

In: Queued: 1076106 (k[5mC]*kT*kA*d[5mC]*dG*dA*dA*dA*dT*dA*dG*dT*dA*kA*k[5mC]*kT; antisense) [Compound 1076106]
Out: 77

In: Now try 1076266 (kA*kT*kT*dA*dT*dT*dA*d[5mC]*d[5mC]*d[5mC]*dA*dA*dT*kA*kA*k[5mC]; antisense) [Compound 1076266] .
Out: 72

In: Same for 1074698 (antisense kT*kA*kT*d[5mC]*dA*dA*dG*dG*dT*d[5mC]*d[5mC]*d[5mC]*d[5mC]*k[5mC]*kT*kA) [Compound 1074698]
Out: 78

In: Entry 1075434 (antisense kG*kT*kA*dA*dA*dA*dG*dA*dG*dG*dT*dG*d[5mC]*kA*kT*k[5mC]) [Compound 1075434] please
Out: 96

In: Queued: 1074730 (antisense kT*kA*kT*d[5mC]*dA*d[5mC]*dA*dG*dT*dA*d[5mC]*dT*dG*k[5mC]*kT*kA) [Compound 1074730]
Out: 46

In: Now the same for 1076074 (k[5mC]*kT*kA*dA*dT*dT*dA*dG*d[5mC]*dT*dT*dT*d[5mC]*kA*kG*k[5mC]; antisense) [Compound 1076074]
Out: 92

In: Please give the result for 1076010 (kT*kA*kT*dA*dA*dA*d[5mC]*dA*dA*dT*dA*dG*d[5mC]*kG*kA*kA; antisense) [Compound 1076010] too.
Out: 44

In: Another substance: 1074122 (antisense k[5mC]*kT*kG*d[5mC]*dG*dA*dG*dG*d[5mC]*dA*d[5mC]*dT*d[5mC]*kG*kG*kA) [Compound 1074122]
Out: 73

In: 1074442 (kG*kA*k[5mC]*d[5mC]*dA*dG*dT*dA*dA*dA*dT*d[5mC]*dA*kT*kG*kT; antisense) [Compound 1074442] , same question.
Out: 21

In: What about 1076170 (kA*kG*kT*dA*dA*dA*dG*dA*dG*dT*dA*d[5mC]*dT*kG*kT*kA; antisense) [Compound 1076170] ?
Out: 16

In: Quick one: 1075562 (kG*kT*kA*dT*dT*dT*dA*dT*dG*dG*d[5mC]*dA*dA*k[5mC]*kA*kT; antisense) [Compound 1075562]
Out: 15

In: Now consider 1075882 (kG*kA*kA*dA*dA*dT*d[5mC]*d[5mC]*dT*dG*dA*dT*dT*kA*kA*k[5mC]; antisense) [Compound 1075882] and answer again.
Out: 73

In: Input 1075146 (antisense kG*kT*kA*dT*dT*dA*dA*dG*dG*dG*dA*dT*dT*kT*kT*k[5mC]) [Compound 1075146]
Out: 8

In: # iterate: 1075786 (k[5mC]*kT*kA*dT*dA*dT*dT*dG*dA*dT*dT*d[5mC]*d[5mC]*kA*kG*kA; antisense) [Compound 1075786]
Out: 19

In: Try 1074218 (antisense kA*kG*kG*dG*d[5mC]*dT*d[5mC]*d[5mC]*dT*dG*d[5mC]*dA*dG*kT*kG*k[5mC]) [Compound 1074218] next.
Out: 70

In: For 1074666 (antisense k[5mC]*kA*kT*dA*dT*dA*d[5mC]*d[5mC]*d[5mC]*dA*dA*dT*dT*kT*kT*kG) [Compound 1074666] then?
Out: 16

In: And what about the substance 1074602 (antisense kT*k[5mC]*k[5mC]*dA*dG*d[5mC]*dT*dA*dA*d[5mC]*dT*d[5mC]*dA*kA*kA*kA) [Compound 1074602] ?
Out: 24

====

Provide the recorded YAP1 (% UTC) for the entries that follow.
test system: Yap1 mRNA; assay: Antisense inhibition of human Yap1 in SNU-449 cells by modified oligonucleotides, single dose (Example 5, RTS36584); assay type: cell-based; conditions: Table 39; SNU-449 cells, 10,000 cells per well, free uptake, 2,000 nM oligonucleotide, approx. 48 hours; RTS36584; normalized to RIBOGREEN; Yap1 mRNA relative to untreated control
Strand notation (5' to 3'): a small letter for the sugar, then the base; units joined by * are phosphorothioate-linked, units joined directly phosphodiester-linked; [ ] holds rarer units or linkages, { } end groups; capitals alone tell only the bases. e = 2'-O-(2-methoxyethyl) (MOE); k = constrained ethyl (cEt); [5mC] = 5-methylcytosine; d = 2'-deoxy (DNA)
State the answer as a number, implicitly in % UTC.

In: For 1198415 (kG*dA*dT*dT*dT*dA*dG*dG*dA*dT*dG*k[5mC]*eA*kT*eG*kG; antisense) [Compound 1198415] , what is its reported YAP1 (% UTC)?
Out: 29

In: Let us now turn to 1198404 (kT*dT*dT*dG*dG*dA*dA*dG*dA*dT*d[5mC]*kT*eG*kA*eA*kA) [Compound 1198404]
Out: 55

In: Check 1198400 (kA*dA*dG*d[5mC]*dA*d[5mC]*dT*dT*dT*dT*dA*k[5mC]*eA*kT*eT*kA; antisense) [Compound 1198400] too.
Out: 62

In: Try the substance 1198414 (kA*dT*dT*dT*dA*dG*dG*dA*dT*dG*d[5mC]*kA*eT*kG*eG*kT) [Compound 1198414]
Out: 20

In: Now the substance 1198453 (kG*dA*d[5mC]*dT*dA*dA*dG*dT*dA*dA*dG*kG*eT*kT*eT*k[5mC]; antisense) [Compound 1198453]
Out: 48

In: Field entry: 715487 (antisense kA*kT*kT*dA*d[5mC]*dT*dT*d[5mC]*dA*dT*dA*dG*d[5mC]*kT*kT*kA) [Compound 715487]
Out: 12

In: Now give it for 1198432 (kT*dA*dA*dT*dA*dT*dT*dG*d[5mC]*dA*dA*kT*e[5mC]*kT*eG*kT; antisense) [Compound 1198432] too.
Out: 70
